experiment: Turbidity, derived count rate of scattered light; assay type: physicochemical; settings: turbidity, derived count rate of scattered light, log10; data of Figure 2D
Please go through the items and note down their Log10 Count Rate.
One number for each entry.

FKFDKFKFDK | 1.6545
EIEIQINM | 2.127
RGDKIKIQIC | 3.876

Provide the reported Log10 Count Rate of each entry below, same order.
1. CKFKFQFNMW
2. KIKIQINMWA
3. CEFEFQFNMWQ
4. EIKIQINM
5. KAKAQA
6. CKIKIQINM

3.613
3.042
2.27
3.45
1.321
3.626

Give me Log10 Count Rate for each of these substances, listed below.
1. CKIKIQI
2. KIKIKIKIWW
3. NMWQKIKQII
4. KFKFQFN

1. 3.386
2. 3.975
3. 2.992
4. 1.705

###

experiment: Turbidity, derived count rate of scattered light; assay type: physicochemical; conditions: derived count rate of scattered light (turbidity)
property-name: Count Rate
Give bare numbers.

Below, 3 substances whose answers are already recorded.
EIEIQINMWQ | 1264
RGDCKIKIQINM | 1623
PPFHPPPFHP | 59.13

Report Count Rate for every entry below.
1. ILKNLSRSRKIKIQINMWQ
2. KIEIQINM
3. QCKFKQFFNMWQ
4. KLKLQLL
5. KIKIQINMWWWQ

[306.5, 274.8, 18911.36667, 72.67, 7596.3]

# return Count Rate for each item in the list
1. CRFRFQF
2. KFKFQFW
3. CKFKFQFW
4. KIKIQINMWA
5. QCKFKQFF
6. TKTLTKTL
7. QCKIKIQINMWQ
8. QCKIKIQI

1. 390.5
2. 121.9
3. 29210.5
4. 1101.2
5. 225.4
6. 514.6
7. 8271
8. 12426.83333

Hi team, please reply with Count Rate for each item in this list.
1. KIKIKIKIWW
2. KIRGKFEKED
3. EIEIEIEI
4. MKIKIQINM
5. KFKFEFEF

1: 9436; 2: 214.4; 3: 538.4; 4: 981.3; 5: 2186

###

test system: HIV-1 infection of TZM-bl cells; experiment: HIV-1 infectivity enhancement assay, β-galactosidase luminescence; assay type: cell-based; details: Fig. S7 panel A (plotted against β-sheet content); Log10 infection relative to EF-C, TZM-bl cells; asymmetric std dev errors
Label Criterion met for high-side Log Infectivity (at or above -2) and Criterion not met for low-side Log Infectivity (below it).

Known results for substances:
HGEHGE | Criterion not met
CKFKQFFNM | Criterion met
CRFRVPF | Criterion met
KFKFQF | Criterion met
KLKLQLL | Criterion not met

Please indicate if the recorded Log Infectivity for QCKAKAQA meets or exceeds -2. Criterion met

Request: IKVAVKIKIQINM Criterion met

###

assay: Zeta-potential measurement; format: physicochemical; details: FigS26
property-name: Zeta category ( +1 = if > 4 mV;-1 = if < -4 mV; 0 = -4mV to 4 mV)

Example substances with recorded Zeta category ( +1 = if > 4 mV;-1 = if < -4 mV; 0 = -4mV to 4 mV):
KIKIQIRGD [MG6] | 1 (+1 = if > 4 mV)
NMWQKAKAQA [JG10] | -1 (-1 = if < -4 mV)
KIKIQIMWNQ [VH15] | 0 (0 = -4mV to 4 mV)
KIKIQIMQWN [VH16] | 1 (+1 = if > 4 mV)
KIKQIINMWQ [JG2] | 1 (+1 = if > 4 mV)

# per-item lookup of Zeta category ( +1 = if > 4 mV;-1 = if < -4 mV; 0 = -4mV to 4 mV); items listed below
1. KIKIQIAMWQ [JR4]
2. NMWQKIKQII [JG8]
3. KIKIQINMWA [JR1]
4. KIKIQINMWQ [JG1]
5. RGDKIKIQINMC [psis29]
6. NMWQKIKIQI [JG9]
7. KIKIQINMAQ [JR2]

["1 (+1 = if > 4 mV)", "0 (0 = -4mV to 4 mV)", "1 (+1 = if > 4 mV)", "1 (+1 = if > 4 mV)", "1 (+1 = if > 4 mV)", "1 (+1 = if > 4 mV)", "0 (0 = -4mV to 4 mV)"]

###

Kindly supply the reported Log10 of Rel to EFC (Feb2021) values for the records listed here.
system: HIV-1 infection of TZM-bl cells; assay: HIV-1 infectivity enhancement assay, β-galactosidase luminescence; assay type: cell-based; conditions: Log10 of infection relative to EF-C; all peptides of FigS16
Numbers only.

Sample answers from the record:
CKIKIQI | 0.01
HHHHKIKIQINMYYYY | 0.04
KIKIQINMWA | -0.16
RGDKIKIQINMC | 0.03
KFKFKFQF | -0.1

Take each entry in turn and give its Log10 of Rel to EFC (Feb2021).
1. CKFKFQFNMW
2. CQFQFQF
3. RGDKIKIQINM
4. QCKFKFQF

-0.02
-0.45
-0.38
-0.12

I have this substance here, RGDKIKIQINMWQ , and I need its recorded Log10 of Rel to EFC (Feb2021). -0.12

###

Kindly supply the reported TEM 2cat values for the records listed here.
assay type: physicochemical; design: key: 1 = fibrils present; 0 non-fibrillar structures; settings: Fig S10 panel D
Answers are plain numbers.

Example substances with recorded TEM 2cat:
KLKQLL | 0
KFKFQFNMWQ | 1
KFKFQFN | 1
QCKIKIQINM | 1

Working through the 6 substances below one at a time, give TEM 2cat for each.
1. CKIKQIINM
2. KIRGKFEKED
3. QCKFKFQFNM
4. QCKIKQIINM
5. KIKIQI
6. PPFHPPPFHP

1: 1; 2: 0; 3: 1; 4: 1; 5: 0; 6: 0

What value of TEM 2cat has been reported for the following substance? CKAKAQANMWQ 0

###

test: Conversion rate (CR) assay with fluorescamine; type: physicochemical
Could you label it fulfilled if measured Conversion Rate / % is 70% or higher, and not fulfilled otherwise?

Here are 8 substances together with their reported answers.
RGDKIKIQINM [MG8a / CN17] | fulfilled
KAKAQA [JJA2 / TM153] | not fulfilled
CKFKFQFNM [BL3] | fulfilled
CKFKFQF [BL4] | fulfilled
KFKFQFNMWQ [JG4] | fulfilled
QCKFKFQFNM [CK8] | fulfilled
CEIEIQINMWQ [TM143] | not fulfilled
KIKIQINMWQ [JG1] | fulfilled

Kindly determine if Conversion Rate / % recorded for CKIKIQINMWQ [MG1] is above or exactly 70%. fulfilled

Next record, please: CKFKFQFNMWQ [BL2] fulfilled

// next record CKAKAQANM [BL9] not fulfilled

Would you mind doing KIKQIINMWQ [JG2] as well? fulfilled

Queued: QCKIKIQINMWQ [EF-C opt] fulfilled

# repeat for KFKFQF [JJA6] not fulfilled

What do we get for QCKFKQFFNM [CK11] ? fulfilled

Same question for KIKQII [msis21] please. not fulfilled

What do we get for KFKFQFNM [BL6a] ? fulfilled

###

type: physicochemical; parameters: key: 1 = fibrils present; 0 non-fibrillar structures; settings: FigS12 panel B; TEM
property-name: Fibril
One number for each entry.

Consider the following illustrative entries.
CKIKQIIRGD | 0
HLHLPLL | 0
KLKQLL | 0
KVKVQVVV | 1
HHHHKAKAKAKAWWWW | 0
FDPFDPFDP | 0
CEIEIQI | 1
KIKIQI | 0
KAKAQANMWQ | 0
KFKFQFN | 1

Items follow; give Fibril for each.
1. KIKIKIKI
2. CKIKQII
3. KIKIQINMWQRGD
4. KIKIQII
5. HHHHKAKAKAKAYYYY
6. CKYKYQY
7. HGDKCHGDKC
8. KYKYQY

[0, 1, 0, 1, 0, 0, 0, 0]

###

Please respond with reported Inf. rel. EF-C for every item in the list.
tested on: HIV-1 infection of TZM-bl cells; assay: HIV-1 infectivity enhancement assay, β-galactosidase luminescence; type: cell-based; settings: HIV-1 infection relative to EF-C; Fig 23 plot, single data point, replicate 1
Answers are plain numbers.

Parameter requested: Inf. rel. EF-C. Apply to each item below.
1. RVRVTVT
2. CKAKAQANM
3. KAKLTCT
4. CKAKAQANMWQ
5. QCKAKAQANM

[0.04632, 0.01398, 0.09602, 0.02321, 0.03504]

###

Exercise: state measured CR for each of the substances provided.
Test: Conversion rate (CR) assay with fluorescamine
Format: physicochemical
Parameters: key: % = 100−100×filtrate/original fluorescence intensity
Conditions: conversion rate, fluorescamine assay
Procedure: For ATR FT–IR spectroscopy measurements, 200 µL of the respective 1 mg/mL PNF solution was lyophilized and the resulting powder used for measurement. All spectra were recorded on a Bruker Tensor 27 spectrometer with a diamond crystal as ATR element (PIKE MiracleTM, spectral resolution 2 cm^-1). Every sample was measured with 64 scans. Data were analyzed with OriginLab software and calculation of β–sheet content was conducted according to a previous report. TEM. […]
Answers are plain numbers.

CEIEIQI | 59

Give CR for each of the items listed below.
1. CHLHLQL
2. CKIKIQINMWQ
3. KIKIQI
4. KNERIKNERI
5. QCKIKIQINM
6. QCKFKQFFNMWQ

96.58
89.15
18.91
54.36
89.7
98.72

Values compiled from paper PMC10447463.
